# residual activity per record follows
biological target: NUAK1 (human) (UniProt O60285); test: Free Choice Kinase Assay Projects, Flashplate; conditions: compound 10.0 µM; ATP 1 µM
Sequence (O60285 whole entry, looked up): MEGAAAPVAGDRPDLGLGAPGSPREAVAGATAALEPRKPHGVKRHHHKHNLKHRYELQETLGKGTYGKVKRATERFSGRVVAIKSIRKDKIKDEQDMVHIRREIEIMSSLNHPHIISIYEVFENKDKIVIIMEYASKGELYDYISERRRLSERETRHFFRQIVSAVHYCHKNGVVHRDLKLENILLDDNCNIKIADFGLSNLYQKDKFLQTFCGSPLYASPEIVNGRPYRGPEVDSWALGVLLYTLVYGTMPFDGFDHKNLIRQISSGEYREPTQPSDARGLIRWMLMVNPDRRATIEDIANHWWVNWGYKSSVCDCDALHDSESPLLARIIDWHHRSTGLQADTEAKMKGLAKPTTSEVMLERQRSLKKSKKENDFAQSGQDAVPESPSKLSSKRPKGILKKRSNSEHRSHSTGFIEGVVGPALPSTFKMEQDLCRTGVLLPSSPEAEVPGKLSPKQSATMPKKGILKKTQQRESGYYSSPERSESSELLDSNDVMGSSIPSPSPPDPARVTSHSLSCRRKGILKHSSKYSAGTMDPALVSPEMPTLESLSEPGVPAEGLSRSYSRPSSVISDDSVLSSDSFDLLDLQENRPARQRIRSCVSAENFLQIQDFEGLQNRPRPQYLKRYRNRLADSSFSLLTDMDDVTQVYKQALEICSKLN
ASSAY READOUT: residual activity (%)

# MOLECULE, OBSERVED MEASUREMENT
records = [
    ("On1c(/C=C/c2ccccc2)nc(-c2ccncc2)c1-c1ccc(F)cc1", 51),
    ("Fc1ccc(-c2[nH]c(SCC3CCCCC3)nc2-c2ccncc2)cc1", 91),
    ("CSc1nc(-c2ccnc(NC(=O)C3CCCC3)c2)c(-c2ccc(F)cc2)n1C", 100),
    ("Oc1cccc(CSc2nc(-c3ccncc3)c(-c3ccc(F)cc3)[nH]2)c1", 121),
    ("Fc1ccc(-c2[nH]c(CCc3ccccc3)nc2-c2ccncc2)cc1", 89),
    ("N#CCSc1nc(-c2ccncc2)c(-c2ccc(F)cc2)[nH]1", 106),
    ("Fc1ccc(-c2[nH]c(SCCc3ccccc3)nc2-c2ccncc2)cc1", 77),
    ("Fc1ccc(-c2[nH]c(SCCCc3ccccc3)nc2-c2ccncc2)cc1", 89),
    ("CC(Nc1cc(-c2nc(SCc3ccccc3)[nH]c2-c2ccc(F)cc2)ccn1)c1ccccc1 (stereo not given)", 43),
    ("Fc1ccc(-c2[nH]c(SCc3cccc4ccccc34)nc2-c2ccncc2)cc1", 53),
    ("Fc1ccc(-c2[nH]c(/C=C/c3ccccc3)nc2-c2ccncc2)cc1", 45),
    ("Fc1ccc(-c2[nH]c(SCc3ccccc3)nc2-c2ccnc(Cl)c2)cc1", 71),
    ("CSc1ccccc1CSc1nc(-c2ccncc2)c(-c2ccc(F)cc2)[nH]1", 95),
    ("Fc1ccc(-c2[nH]c(SCc3ccccc3)nc2-c2ccnc(F)c2)cc1", 127),
    ("CSc1ccc(CSc2nc(-c3ccncc3)c(-c3ccc(F)cc3)[nH]2)cc1", 122),
    ("COc1ccc(C(=O)Nc2cc(-c3nc(SC)n(C)c3-c3ccc(F)cc3)ccn2)cc1", 95),
    ("Fc1ccc(-c2[nH]c(SCc3ccccc3)nc2-c2ccncc2)cc1", 93),
    ("CSc1nc(-c2ccnc(NC(=O)C3CC3)c2)c(-c2ccc(F)cc2)n1C", 109),
    ("On1c(CCc2ccccc2)nc(-c2ccncc2)c1-c1ccc(F)cc1", 100),
    ("CSc1nc(-c2ccnc(F)c2)c(-c2ccc(F)cc2)[nH]1", 105),
]

====

molecular target: PDGFRB (human) (UniProt P09619); experiment: Free Choice Kinase Assay Projects, Flashplate; conditions: compound 10.0 µM; ATP 0.3 µM
Sequence (P09619 whole entry, looked up): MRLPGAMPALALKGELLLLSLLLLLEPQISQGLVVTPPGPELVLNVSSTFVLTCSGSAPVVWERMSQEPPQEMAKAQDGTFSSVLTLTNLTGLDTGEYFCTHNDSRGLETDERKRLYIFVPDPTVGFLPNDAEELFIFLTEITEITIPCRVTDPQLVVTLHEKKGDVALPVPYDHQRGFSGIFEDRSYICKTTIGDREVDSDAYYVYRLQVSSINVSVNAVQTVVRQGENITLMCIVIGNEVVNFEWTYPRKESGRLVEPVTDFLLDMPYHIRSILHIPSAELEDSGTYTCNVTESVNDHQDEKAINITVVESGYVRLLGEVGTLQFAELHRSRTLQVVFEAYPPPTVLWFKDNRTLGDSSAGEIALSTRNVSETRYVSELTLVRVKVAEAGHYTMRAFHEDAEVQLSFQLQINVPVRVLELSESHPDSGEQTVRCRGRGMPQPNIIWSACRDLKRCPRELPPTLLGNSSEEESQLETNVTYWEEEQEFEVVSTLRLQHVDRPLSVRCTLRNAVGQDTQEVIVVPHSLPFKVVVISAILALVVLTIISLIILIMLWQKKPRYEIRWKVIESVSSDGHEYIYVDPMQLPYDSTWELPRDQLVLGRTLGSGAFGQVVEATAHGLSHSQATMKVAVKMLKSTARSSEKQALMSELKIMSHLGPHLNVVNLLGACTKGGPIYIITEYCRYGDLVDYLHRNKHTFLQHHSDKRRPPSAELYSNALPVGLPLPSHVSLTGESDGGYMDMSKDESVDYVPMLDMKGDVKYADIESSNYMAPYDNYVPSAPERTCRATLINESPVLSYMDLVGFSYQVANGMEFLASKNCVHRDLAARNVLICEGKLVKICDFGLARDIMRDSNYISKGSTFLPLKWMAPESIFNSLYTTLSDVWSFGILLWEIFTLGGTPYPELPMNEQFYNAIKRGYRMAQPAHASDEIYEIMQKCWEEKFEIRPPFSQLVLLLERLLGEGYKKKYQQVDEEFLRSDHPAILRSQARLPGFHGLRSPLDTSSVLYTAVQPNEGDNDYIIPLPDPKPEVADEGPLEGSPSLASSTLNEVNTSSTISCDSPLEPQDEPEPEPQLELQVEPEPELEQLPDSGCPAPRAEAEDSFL
ASSAY READOUT: residual activity (%)

# RECORD SMILES, ASSAY READOUT, OBSERVED MEASUREMENT
rows = [
    ("CSc1ccc(CSc2nc(-c3ccncc3)c(-c3ccc(F)cc3)[nH]2)cc1", "residual activity", 53),
    ("Fc1ccc(-c2[nH]c(/C=C/c3ccccc3)nc2-c2ccncc2)cc1", "residual activity", 34),
    ("CSc1ccc(CSc2nc(-c3ccncc3)c(-c3ccc(Br)cc3)[nH]2)cc1", "residual activity", 54),
    ("CSc1nc(-c2ccnc(NC(=O)C3CCCC3)c2)c(-c2ccc(F)cc2)n1C", "residual activity", 65),
]
